Documented melting point across a set of compounds

Solved cases below.
compound	measured-quantity	result
Cc1cc(=O)oc2cc(-n3cc(CSc4nc5ccccc5s4)nn3)ccc12 [Compound 4a]	melting point	186 to 192 °C
COc1ccc(-c2cn(-c3ccc4c(C)cc(=O)oc4c3)nn2)cc1 [Compound 2f]	melting point	266 to 270 °C
Cc1cc(=O)oc2cc(-n3cc(-c4ccc(N(C)C)cc4)nn3)ccc12 [Compound 2c]	melting point	275 to 279 °C
Cc1cc(=O)oc2cc(-n3cc(-c4ccc(N)cc4)nn3)ccc12 [Compound 2b]	melting point	269 to 273 °C
Cc1cc(=O)oc2cc(-n3cc(CSc4nc5ccccc5[nH]4)nn3)ccc12 [Compound 4b]	melting point	237 to 244 °C
Cc1ccc(-c2cn(-c3ccc4c(C)cc(=O)oc4c3)nn2)cc1 [Compound 2d]	melting point	269 to 272 °C
Cc1cc(=O)oc2cc(-n3cc(-c4ccc(C=O)cc4)nn3)ccc12 [Compound 2g]	melting point	282 to 287 °C
Cc1cc(=O)oc2cc(-n3cc(-c4ccc(-c5cn(-c6ccc7c(C)cc(=O)oc7c6)nn5)cc4)nn3)ccc12 [Compound 2i]	melting point	255 to 261 °C
Cc1cc(=O)oc2cc(-n3cc(-c4ccc(Br)cc4)nn3)ccc12 [Compound 2e]	melting point	280 to 285 °C

Attention now shifts to the item below.
Tell me melting point reported for Cc1cc(=O)oc2cc(-n3cc(-c4ccccc4)nn3)ccc12 [Compound 2a]
267 to 270 °C
